system tested: UGT2B17 (Homo sapiens)
assay summary: Inhibition of UGT2B17
measurement context: human; read-out: Imax
Reported Emax values for the following compounds.
Note to self: number, then unit, no commentary.

[Q] Consider the compound COc1cccc2c1CCC[C@H]2O (racemic) and give its recorded Emax.
[A] 88.9%

[Q] Consider the compound Cc1ccc2c(c1)[C@@H](O)CC2 and give its recorded Emax.
[A] 58.3%

[Q] Consider the compound O[C@H]1CCc2ccccc21 and give its recorded Emax.
[A] 63.4%

[Q] Consider the compound O[C@H]1CCOc2ccccc21 (racemic) and give its recorded Emax.
[A] 74.8%

[Q] Consider the compound O=[N+]([O-])c1ccc2c(c1)[C@@H](O)CCC2 and give its recorded Emax.
[A] 77.4%

---

system tested: UGT2B17 (Homo sapiens, UniProt O75795)
Sequence (O75795 whole entry): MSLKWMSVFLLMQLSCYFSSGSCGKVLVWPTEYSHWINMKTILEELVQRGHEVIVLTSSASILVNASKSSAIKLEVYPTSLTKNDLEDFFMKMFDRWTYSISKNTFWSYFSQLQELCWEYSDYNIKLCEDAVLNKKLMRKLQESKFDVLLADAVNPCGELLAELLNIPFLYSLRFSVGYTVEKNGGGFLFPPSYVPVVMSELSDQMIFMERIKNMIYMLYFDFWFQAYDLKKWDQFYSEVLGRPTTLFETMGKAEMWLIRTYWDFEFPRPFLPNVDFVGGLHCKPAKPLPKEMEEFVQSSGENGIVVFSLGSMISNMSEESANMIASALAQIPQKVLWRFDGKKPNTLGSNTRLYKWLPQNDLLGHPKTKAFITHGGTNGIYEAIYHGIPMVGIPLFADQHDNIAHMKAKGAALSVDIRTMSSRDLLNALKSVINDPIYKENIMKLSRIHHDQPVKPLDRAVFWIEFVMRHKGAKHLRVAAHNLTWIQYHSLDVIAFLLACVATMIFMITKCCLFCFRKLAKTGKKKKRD
assay summary: Inhibition of UGT2B17
measurement context: human; read-out: Imax
Reported Emax values for the following compounds.
Kindly answer with a numeric value in %, unit omitted.

Some solved cases for reference:
Cc1cccc2c1CC[C@H]2O (racemic) : 60.1
Cc1ccc2c(c1)[C@H](O)CC2 (racemic) : 69.6
Cc1cc(C)c2c(c1)[C@@H](O)CCC2 : 90.5
Cc1cccc2c1CC[C@@H]2O : 61.7

Proceed to the following item.
[Q] Consider the compound O[C@@H]1CCCc2ccccc21 and give its recorded Emax.
[A] 78.8

src = ChEMBL document CHEMBL1139014
